Every entry's value here was drawn from PubChem BioAssay AID1159524.

test: High Throughput Screening for Foot and Mouth Disease Virus Antivirals; also: read-out not given here; nearly all actives have a fitted effect of over 45% in size
measurement-parameters: FMDV antiviral cell-based qHTS; series mostly up to 57.9 µM
The whole screen tested about 410,000 compounds, of which about 5,100 (1.2%) were called active. Another 8% or so got no clear call; they are omitted. Calls follow the shape of the full dose curve; tested in HEK293T cells. What follows is part of a selection rich in actives, with near analogues and random picks from the rest.
Labels: t for active, f for inactive

compound | class-label
O=C(CN1Cc2ccccc2OC(c2ccccc2)C1)N1CCCCC1c1cccnc1 (stereo not drawn) | f
O=C(O)c1ccc(N/N=C/c2ccc3ncccc3c2)cc1 | t
Cc1cccc(NC(=O)CSc2nc3c([nH]c4ccccc43)c(=O)n2-c2cc(C)cc(C)c2)c1 | f
CC(C)c1nccn1S(=O)(=O)c1cc([N+](=O)[O-])ccc1Cl | f
Cc1cccc(-n2c(SCC(N)=O)nc3c(c2=O)C2(CCCCC2)Cc2ccccc2-3)c1 | t
CN(C)CCc1c[nH]c2ccc(Cn3cncn3)cc12 | f
CCc1nc2cccnc2n1-c1ccc(C(=O)O)cc1 | f
CC(=O)N1CCC2(CCCN(Cc3ccc(C#N)cc3)C2)CC1 | f
COc1ccc(F)c(CN2CCC3(CCC(CNC(=O)c4ccn(C)n4)O3)CC2)c1 (stereo not drawn) | f
O=C(c1cccc(F)c1)N1CCC2(CCCN(Cc3ccncc3)C2)CC1 | f
COCCn1c(=O)c(-c2ccccc2)nc2cnc(N3CCOCC3)nc21 | f
Cn1cnc([N+](=O)[O-])c1Sc1n[nH]c(N)n1 | f
NCCCCCC(=O)N/N=C/c1ccc2nccnc2c1 | f
COc1ccc(C(=O)/C=C/Nc2ccccn2)cc1 | t
N#CC1=C(N)Oc2cc(O)ccc2C1C1CCCCC1 (stereo not drawn) | f
CCc1nccn1S(=O)(=O)c1cccc([N+](=O)[O-])c1 | f
Cc1cccc(-n2c(SCC(N)=O)nc3c(oc4ccccc43)c2=O)c1 | f
Cc1cccc(Cc2c(C)nc3nc(SCc4ccccc4Cl)nn3c2C)c1 | f
COCCN(C(=O)CCC(=O)Nc1ccccn1)C(C(=O)NCCC(C)C)c1ccc(OC)cc1 (stereo not drawn) | f
CC1(C)CC(N2CCN(C(c3ccccc3)c3ccccc3)CC2)=CC(=[N+]2CCCCC2)C1 | t
Cn1cnc([N+](=O)[O-])c1Nc1ccccc1O | f
Cc1ccc(CC2(O)CCN(CCOc3ccc(O)cc3)CC2)cc1 | f
CCOC(=O)c1cc(OC(=O)c2ccccc2Cl)n(-c2ccccc2)n1 | f

====

test: High Throughput Screening for Foot and Mouth Disease Virus Antivirals; also: read-out not given here; nearly all actives have a fitted effect of over 45% in size
measurement-parameters: FMDV antiviral cell-based qHTS; series mostly up to 57.9 µM
The whole screen tested about 410,000 compounds, of which about 5,100 (1.2%) were called active. Inconclusive results (about 8%) are left out. The call rests on the fitted dose curve; tested in HEK293T cells. The full list was thinned out, with actives kept by preference.
Labels: YES = active, NO = inactive

compound | class-label
Cc1oc(-c2cccc(NC(=O)c3ccccc3)c2)nc1CNC(=O)c1cnc2ccccn2c1=O | NO
Cn1cc(-c2nc3cnc(N4CCNCC4)nc3n(CCC#N)c2=O)c2ccccc21 | NO
O=C(CCCC(=O)N1CCN(c2cccc(Cl)c2)CC1)c1ccccc1 | NO
CN[C@@H]1[C@H](O[C@H]2[C@H](O[C@H]3[C@H](O)[C@@H](O)[C@H](N=C(N)N)[C@@H](O)[C@@H]3N=C(N)N)O[C@@H](C)[C@]2(O)CO)O[C@@H](CO)[C@H](O)[C@H]1O | NO
O=C(Nc1nc(-c2ccc3c(c2)OCO3)cs1)c1ccncc1 | YES
Cc1ccc(CSc2nc3ccsc3c(=O)n2CCC(C)C)cc1 | NO
CCOCCn1ccc2c(OCC(=O)NCc3ccc(C)cc3)cccc2c1=O | NO
O=C(c1cccc(Cl)c1)N1CCN(CCc2ccncc2)CC1 | NO
CCn1ccnc1C[C@@H]1COc2ccccc2O1 | NO
COc1cc(Cl)c(C)cc1NC(=O)COC(=O)c1cc(SC)ccc1Cl | NO
C#Cc1cc(N2CCN(C(=O)c3ccoc3)CC2)n2nc(-c3cccc(Cl)c3)cc2n1 | YES
CCC1CCCCN1S(=O)(=O)c1ccc(NC(=O)c2cc(=O)c3ccccc3o2)cc1 (stereo unspecified) | YES
COc1cccc(-n2cc(C(=O)NCc3cccc(Cl)c3)c3ccccc3c2=O)c1 | NO
CCc1nc(-c2cc(S(=O)(=O)N3CCN(c4ccc(OC)cc4)CC3)ccc2OC)no1 | NO
Cc1ccc2oc(C(=O)Nc3ccc(S(=O)(=O)N4CCCCCC4)cc3)cc(=O)c2c1 | NO
Cc1csc(OCC(=O)Nc2ccc(C)c(C)c2)n1 | NO
O=C1NC(CC(=O)N2CCC(n3c(C4CCC4)nc4cccnc43)CC2)c2ccccc21 (stereo unspecified) | NO
Oc1ccc2c(c1)OCC1c3cc4c(cc3OC21)OCO4 (stereo unspecified) | NO
O=C(CCN1Cc2ccccc2OC(c2ccccc2)C1)N[C@@H]1CS(=O)(=O)C[C@H]1O (stereo partly specified) | NO
CCCCC(O)(CCCC)C(=O)NN(C(=O)CCl)c1ccccc1 | YES
O=C(c1cnccn1)N1CCC2(CCN(Cc3cc(C(F)(F)F)cc(C(F)(F)F)c3)CC2)CC1 | NO
Cc1cc(C)c2oc(C(=O)Nc3ccc(S(=O)(=O)N4CCCCCC4)cc3)cc(=O)c2c1 | NO
CN(c1ccccc1)S(=O)(=O)c1cc(C(=O)OCC(=O)N2CCN(C(=O)c3ccco3)CC2)ccc1Cl | YES
CC1Cc2cc(S(=O)(=O)CCC(=O)Nc3ccc(F)c(Cl)c3)ccc2N1C(=O)C1CC1 (stereo unspecified) | NO
Cc1cc(C(=O)CCl)c(C)n1CC1COc2ccccc2O1 (stereo unspecified) | YES
O=C(c1cccc(Br)c1)N1CCN(Cc2cc(=O)n3nc(-c4ccccc4)sc3n2)CC1 | NO
O=C(COC(=O)C1(c2ccc(F)cc2)CCCC1)N1CCNC1=O | NO
CN(CCO)c1ccc(/C=N/Nc2nncc3ccccc23)cc1 | YES
C=CC(=O)c1ccc2ccccc2c1 | NO
Cc1cc(C(=O)COc2ccccc2[N+](=O)[O-])c(C)n1-c1cccc(S(=O)(=O)N2CCOCC2)c1 | YES
COc1ccc(-n2c(CNC(=O)c3cc(C(F)(F)F)ccc3Cl)nnc2SC)cc1 | NO
O=C(Nc1ccccc1Cl)N1CCC(CN2CCCCC2)CC1 | NO
CCC(C(=O)Nc1cccc(-c2nc3cccnc3s2)c1C)c1ccccc1 (stereo unspecified) | NO
CCN(CCCCOC(=O)c1ccc(OC)c(OC)c1)C(C)Cc1ccc(OC)cc1 (stereo unspecified) | NO
c1ccc2c(Nc3ccncc3)nc(-c3ccc4c(c3)OCO4)nc2c1 | NO
Cc1ccc(CNC(=O)Cn2c(=O)ccc3cc(S(=O)(=O)N4CCCC4)ccc32)cc1 | NO
O=C(OCC(=O)N1CCN(C(=O)c2ccco2)CC1)c1ccc(Cl)c(Cl)c1 | NO
Cc1n[nH]c(C)c1S(=O)(=O)N1CCCC(C(=O)NCC2COc3ccccc3O2)C1 (stereo unspecified) | NO
CCn1cc(C(=O)NCc2ccccc2)c(=O)c2cc(S(=O)(=O)N3CCCCC3)ccc21 | NO
CN1CCCCCC1C(=O)NCCN1Cc2ccccc2OC(c2ccsc2)C1 (stereo unspecified) | NO
COc1ccc(C(C(=O)NC2CCCCC2)N(C(=O)CCl)c2ccccc2Cl)cc1 (stereo unspecified) | NO

====

test: High Throughput Screening for Foot and Mouth Disease Virus Antivirals; also: potency is read from the fitted curve at half-maximal effect; also: read-out not given here; nearly all actives have a fitted effect of over 45% in size
measurement-parameters: FMDV antiviral cell-based qHTS; series mostly up to 57.9 µM
The whole screen tested about 410,000 compounds, of which about 5,100 (1.2%) were called active. Roughly 8% stayed inconclusive and do not appear here. The list comes from a sample in which actives are over-represented; it also holds close analogues and randomly drawn compounds.

compound | Potency
CCOc1ccc(C(=O)Nc2ccc3nc4c(c(Nc5ccccc5OC)c3c2)CCCC4)cc1 | inactive
COCCn1c(=O)c(-c2cccs2)nc2cncnc21 | inactive
Cc1cccc(N2CCN(C(=O)c3ccc4c(c3)CCN4S(=O)(=O)c3ccccc3)CC2)c1C | inactive
C[C@@H]1CN(Cc2ccc3c(c2)CN(Cc2ccc(Oc4ncccn4)cc2)CCO3)C[C@H](C)O1 | inactive
CCCS(=O)(=O)N1CCC(C(=O)NCCCN(C)Cc2ccccc2)CC1 | 28.2 µM (active)
Cc1ccc(Nc2c3c(nc4ccccc24)CCC3)cc1 | 17.8 µM (active)
N[C@H](C(=O)O)c1ccc(C(=O)O)c(O)c1 | inactive
CCCCC(=O)N(C)c1c(CC)nc2c(OCc3ccc(Cl)cc3Cl)cccn12 | inactive
O=C(Nc1cc(C(=O)Nc2ccc(S(=O)(=O)O)cc2)cc(C(=O)Nc2ccc(S(=O)(=O)O)cc2)c1)Nc1cc(C(=O)Nc2ccc(S(=O)(=O)O)cc2)cc(C(=O)Nc2ccc(S(=O)(=O)O)cc2)c1 | inactive
CCc1nc2c(OCc3cccc(OC)c3)cccn2c1N(C)C(=O)C(C)C | inactive
O=C(c1cccc(C(=O)N2CCN(c3ccc(F)cc3)CC2)c1)N1CCN(c2ccc(F)cc2)CC1 | 39.8 µM (active)
Cc1cc(C)cc(NS(=O)(=O)c2cc3c(cc2C)NC(=O)CO3)c1 | inactive
CCS(=O)(=O)N1CCCC(C(=O)NCCCN(C)Cc2ccccc2)C1 (stereo not given) | inactive
CCCCOC(=O)CNc1nnc(SCC(=O)OCC)[nH]c1=O | 39.8 µM (active)
Cc1nnc(SCCCCSc2nnc(C)c(=O)[nH]2)[nH]c1=O | inactive
Cc1ccc(CN2CCC(CNC(=O)c3cnn(-c4ccc(C)cc4)c3C3CCN(C(=O)OC(C)(C)C)CC3)CC2)cc1 | inactive
CC(C)NC(=O)N1CC[C@@]2(CCCN(C(=O)c3cccc(F)c3)C2)C1 | inactive
Cc1[nH]c2c(C(=O)NCC3Cc4cccc(-c5cccnc5)c4O3)cccc2c1C (stereo not given) | inactive
CC1=Nc2cc(C(=O)N3CCC(C)CC3)ccc2Sc2ccc(Cl)cc21 | inactive
CCc1nn(CC(=O)Nc2cc(C)cc(C)c2)c(=O)c2cc3sccc3n12 | inactive
